B1: ETS1 (parent)
chain: FSEPSFITESYQTLHPISSEELLS

- Variants of: B1
- ASSAY_DETAILS: protein stability index of a GFP-peptide fusion (GPS, HEK-293T) (PSI 1-6); higher = more stable;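 further: lentivirally expressed fusions sorted by FACS into six bins by GFP to DsRed ratio, PSI derived from sequencing read proportions per bin multiplied by bin number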
- SETTINGS: c terminus: a fixed tail appended
# protein stability index >= 2 gives Y, anything below gives N

Use these answered entries as a reference point.
>  <MUTANT_NAME>
L22W

>  <QUALITATIVE_LABEL>
N

$$$$
>  <MUTANT_NAME>
L14C

>  <QUALITATIVE_LABEL>
N

$$$$
>  <MUTANT_NAME>
L23H

>  <QUALITATIVE_LABEL>
Y

$$$$
>  <MUTANT_NAME>
F6I

>  <QUALITATIVE_LABEL>
Y

$$$$
>  <MUTANT_NAME>
T8E

>  <QUALITATIVE_LABEL>
Y

$$$$
>  <MUTANT_NAME>
S19P

>  <QUALITATIVE_LABEL>
Y

$$$$

input: Would you say Y11V shows protein stability index at minimum 2?
output: N

input: Would you say E9A shows protein stability index at minimum 2?
output: N

input: Would you say S18E shows protein stability index at minimum 2?
output: Y

input: Would you say I7R shows protein stability index at minimum 2?
output: Y

input: Would you say S19A shows protein stability index at minimum 2?
output: N

input: Would you say H15D shows protein stability index at minimum 2?
output: Y

Cited source: the supplement of paper PMC10567573
